- EXPERIMENTAL_SYSTEM: UniProt:P30559
- Sequence (P30559 whole entry): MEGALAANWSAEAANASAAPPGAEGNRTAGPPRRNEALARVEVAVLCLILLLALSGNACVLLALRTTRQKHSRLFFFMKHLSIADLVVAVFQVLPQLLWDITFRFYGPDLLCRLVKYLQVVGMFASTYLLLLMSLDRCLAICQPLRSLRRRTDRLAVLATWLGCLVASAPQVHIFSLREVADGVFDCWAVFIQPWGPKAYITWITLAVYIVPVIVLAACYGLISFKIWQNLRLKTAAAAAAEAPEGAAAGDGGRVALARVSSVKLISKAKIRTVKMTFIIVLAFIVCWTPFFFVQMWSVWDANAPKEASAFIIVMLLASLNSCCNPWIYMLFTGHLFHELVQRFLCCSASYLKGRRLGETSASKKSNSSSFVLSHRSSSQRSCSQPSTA
- ASSAY_TEXT: Oxytocin receptor (OTR) antagonist assay (FLIPR calcium, CHEM-1-hOTR cells)
pIC50: −log10 of the molar value.
QUANTITY: pIC50

Answered cases to consult:
1. CC1COc2cc(F)ccc2N1C(=O)N1CC2(C1)CN(c1cnccn1)C2 (single isomer, unassigned)    6.30 to 7.00
2. O=C(N1CC2(C1)CN(c1cccc(F)n1)C2)N1CCOc2cc(Cl)ccc21    ≤ 6.00
3. CC1COc2cc(Cl)ccc2N1C(=O)N1CC2(C1)CN(c1noc3ccccc13)C2 (centres unmarked)    6.00 to 6.30
4. CC1COc2cc(Cl)c(F)cc2N1C(=O)N1CC2(C1)CN(c1cccnn1)C2 (centres unmarked) [19-4]    6.30 to 7.00

Given item CCC1COc2cc(Cl)ccc2N1C(=O)N1CC2(C1)CN(c1ccccn1)C2 (centres unmarked) , the value recorded as its pIC50 is > 7.00

Lab note: measured pIC50 of Cc1cnc(N2CC3(CN(C(=O)N4c5ccc(Cl)cc5OCC4C)C3)C2)cn1 (single isomer, unassigned) was 6.30 to 7.00

The recorded pIC50 for entry O=C(N1CC2(C1)CN(c1ccccn1)C2)N1CCC(O)c2cc(Cl)ccc21 (single isomer, unassigned) [13-2-A] equals 6.00 to 6.30

Record COc1ccc2c(c1)OCC(C)N2C(=O)N1CC2(C1)CN(c1ccc(F)cn1)C2 (single isomer, unassigned) . Reported pIC50: 6.30 to 7.00

Summary for this molecule, CC1COc2cc(Cl)ccc2N1C(=O)N1CC2(C1)CN(c1ccccn1)C2 (centres unmarked) [1-60] : pIC50 is > 7.00

Lookup result for CC1COc2cc(Cl)c(F)cc2N1C(=O)N1CC2(C1)CN(c1ncccn1)C2 (centres unmarked) [19-2] ; measured pIC50: 6.00 to 6.30

Record summary for CC1CN(C(=O)N2CC3(C2)CN(c2ccc(F)cn2)C3)c2ccc(Cl)cc2O1 (centres unmarked) [9-3] : reported pIC50 = 6.00 to 6.30

pIC50 recorded for this molecule, O=C(N1CC2(C1)CN(c1cccc(F)n1)C2)N1CCc2cc(Cl)ccc21 , is ≤ 6.00

For record COc1ccnc(N2CC3(CN(C(=O)N4c5ccc(Cl)cc5OCC4C)C3)C2)n1 (centres unmarked) [20-9] the listed pIC50 is 6.30 to 7.00

Query CC1COc2cc(Cl)ccc2N1C(=O)N1CC2(C1)CN(c1ncncc1F)C2 (centres unmarked) yields pIC50 of 6.30 to 7.00

# molecule CC1Cc2cc(Cl)ccc2N1C(=O)N1CC2(C1)CN(c1ccc(F)cn1)C2 (centres unmarked) ; its pIC50 = > 7.00

molecule CC1COc2cc(Cl)ccc2N1C(=O)N1CC2(C1)CN(c1ncccn1)C2 (single isomer, unassigned) , pIC50 observed: 6.30 to 7.00

pIC50 in this record for Cc1nccc(N2CC3(CN(C(=O)N4c5ccc(Cl)cc5OCC4C)C3)C2)n1 (centres unmarked) : 6.30 to 7.00

Summary for this molecule, O=C(N1CC2(C1)CN(c1ccc(F)cn1)C2)N1CCOc2cc(Cl)ccc21 : pIC50 is ≤ 6.00

Sure, the documented pIC50 for CC1COc2cc(F)ccc2N1C(=O)N1CC2(C1)CN(c1cc(C#N)ccn1)C2 (single isomer, unassigned) is 6.30 to 7.00

So for CC1COc2cc(Cl)ccc2N1C(=O)N1CC2(C1)CN(c1cnccn1)C2 (single isomer, unassigned) , the logged pIC50 turned out to be > 7.00

Reported pIC50 for O=C(N1CC2(C1)CN(c1cnccn1)C2)N1CCOCc2cc(Cl)ccc21 was ≤ 6.00

// sample CC1COc2cc(Cl)ccc2N1C(=O)N1CC2(C1)CN(c1ccccn1)C2 (single isomer, unassigned) [1-60-B] , its pIC50 was > 7.00

The value of pIC50 measured for the molecule Cc1nccnc1N1CC2(CN(C(=O)N3c4ccc(Cl)cc4OCC3C)C2)C1 (centres unmarked) [20-10] turned out to be 6.30 to 7.00

Just so you know, measured pIC50 for CC1COc2cc(F)c(F)cc2N1C(=O)N1CC2(C1)CN(c1ncccn1)C2 (single isomer, unassigned) came out at ≤ 6.00
